Each entry below carries its reported viability increase.
procedure.text: doxorubicin toxicity protection in MRP-1 cells – H69AR cells, CellTiter-Glo, duplicate, MRP-1 activator project, pilot screen (AID 807);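 further: compound pretreatment 18-22 h then 72 h combined with doxorubicin; 0% = doxorubicin alone and 100% = vehicle without doxorubicin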
experimental.conditions: H69AR viability with doxorubicin, CellTiter-Glo luminescence; at 10 µM; active compounds read high
Unit % implied. Number only.

CCC1(C)Cc2ccccc2-c2nc3n(c(=O)c21)CCCCC3 (stereo not given) :: -1.36

Fill in reported viability increase for this entry: "O=C(CCS(=O)(=O)c1cccc2nonc12)N1CCN(c2ccc(F)cc2)CC1"
0.64

Write down viability increase measured for item "CSc1nc(NCCOCCO)c2sc3nc(-c4ccco4)c4c(c3c2n1)CCC4"
-4.7

Give the reported value of viability increase for this record: "COc1ccc2cc(CCNC(=O)c3ccc(Br)o3)c(=O)[nH]c2c1"
-2.65

Entry "NC/C(=N\O)c1ccc(Cl)cc1Cl" needs its viability increase filled in; supply it.
2.52
